Data origin, for the record: patent US20130217664A1

Tested on: human TYK2 (Homo sapiens, UniProt P29597)
Construct: catalytic domain (amino acids 871-1187; catalog number 08-147); purchased Carna Biosciences 08-147
Sequence (P29597 871-1187): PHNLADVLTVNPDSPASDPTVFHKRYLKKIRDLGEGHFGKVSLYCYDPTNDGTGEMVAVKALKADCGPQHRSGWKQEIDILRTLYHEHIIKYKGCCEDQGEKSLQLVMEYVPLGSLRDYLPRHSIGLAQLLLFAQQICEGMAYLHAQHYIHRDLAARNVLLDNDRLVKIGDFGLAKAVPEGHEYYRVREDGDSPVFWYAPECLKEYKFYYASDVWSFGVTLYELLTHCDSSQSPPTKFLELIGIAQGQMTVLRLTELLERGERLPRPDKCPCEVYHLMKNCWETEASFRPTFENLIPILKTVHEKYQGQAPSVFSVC
Measurement description: TYK2 inhibition assay
Format: biochemical
Details: recombinant human TYK2 catalytic domain, polyGT substrate
pIC50: −log10 of the molar value.
Measured quantity: pIC50

Note to self: pIC50 recorded for CCc1cc(C(C#N)N2CC[C@@H](F)C2)ccc1N(C)c1cc2c(cn1)ncn2C (stereo partly shown) was 7.00 to 11.00

Note to self: pIC50 recorded for CCc1cc(O[C@@H]2CCN(S(C)(=O)=O)C2)ccc1N(C)c1cc2c(cn1)ncn2C was 6.30 to 7.00

Note to self: pIC50 recorded for CCc1cc(C2CN(C(=O)C(F)(F)F)C2)ccc1N(C)c1cc2c(cn1)ncn2C was 6.30 to 7.00

Note to self: pIC50 recorded for CN(c1cc2c(cn1)ncn2C)c1ccc(CN(C)S(C)(=O)=O)cc1F was 6.30 to 7.00
